# Tested on: C. glabrata
# method-description: Checkerboard FIC assay in combination with fluconazole (MIC alone and in combination, FICI)
# Format: cell-based, Candida glabrata
# run-conditions: concentration in combination as multiple of the compound's MIC alone; fluconazole MIC 2 ug/mL
observed-property: Multiple of compound MIC to synergize fluconazole MIC to 2 ug/mL

Example entries begin here.
Q. Param item = "Cc1ccc(CCCCc2ccc(CC(=O)NO)cc2)cc1" ; retrieve measured Multiple of compound MIC to synergize fluconazole MIC to 2 ug/mL.
A. (1x)

Q. Requested read-out: Multiple of compound MIC to synergize fluconazole MIC to 2 ug/mL. Entry: "O=C(Cc1ccc(CCCCc2ccc(C(=O)NCCCn3ccnc3)cc2)cc1)NO"
A. (⅛x)

Q. Given the entry "O=C(Cc1csc(CCCCc2ccccc2)n1)NO" , report its measured Multiple of compound MIC to synergize fluconazole MIC to 2 ug/mL.
A. (½x)

Q. GET /values?readout=Multiple of compound MIC to synergize fluconazole MIC to 2 ug/mL&item= "Nc1ccc(CCCCc2ccc(CC(=O)NO)cc2)cc1"
A. (¼x)

Q. Could you share which Multiple of compound MIC to synergize fluconazole MIC to 2 ug/mL value was measured for "COCCOCCOCC(=O)Nc1ccc(CCCCc2ccc(CC(=O)NO)cc2)cc1" ?
A. (¼x)

Q. Name the recorded Multiple of compound MIC to synergize fluconazole MIC to 2 ug/mL for "COCCOCCOCC(=O)Nc1cccc(CCCCc2ccc(CC(=O)NO)cc2)c1" .
A. (¼x)

For every item in the list below, what is its measured Multiple of compound MIC to synergize fluconazole MIC to 2 ug/mL?
1. COc1ccc(CCCCc2ccc(CC(=O)NO)cc2)cc1
2. Nc1ccccc1CCCCc1ccc(CC(=O)NO)cc1
3. O=C(Cc1ccc(CCCCc2ccc(F)cc2F)cc1)NO
4. COCCOCCOCCOCCC(=O)Nc1ccc(CCCCc2ccc(CC(=O)NO)cc2)cc1

A.
(½x)
(¼x)
(½x)
(¼x)

Hi! Can you tell me Multiple of compound MIC to synergize fluconazole MIC to 2 ug/mL for each of these compounds?
1. COCCOCCOCCNS(=O)(=O)c1ccc(CCCCc2ccc(CC(=O)NO)cc2)cc1
2. O=C(Cc1ccc(CCCCc2ccc(NC(=O)CO)cc2)cc1)NO

A.
1: (¼x); 2: (¼x)

State the recorded Multiple of compound MIC to synergize fluconazole MIC to 2 ug/mL for every item in the following list.
1. COCCOCCOCCOCCOCCOc1ccc(CCCCc2ccc(CC(=O)NO)cc2)cc1
2. O=C(Cc1ccc(CCCCc2ccc(NC(=O)NCCN3CCOCC3)cc2)cc1)NO

A.
(¼x)
(½x)

====

# System: C. glabrata
# method-description: Checkerboard FIC assay in combination with fluconazole (MIC alone and in combination, FICI)
# Assay type: cell-based, Candida glabrata
# run-conditions: C. glabrata; FICI using a fluconazole MIC of 128 μg/mL
Hi there, I'd appreciate the recorded FICI of combination resulting in fluconazole MIC of: 8 ug/mL (value in parenthesis) for every entry that follows.
One number for each entry.

Some solved cases for reference:
Q. Item under review: "COCCOCCOCCNS(=O)(=O)c1ccc(CCCCc2ccc(CC(=O)NO)cc2)cc1" . Reported FICI of combination resulting in fluconazole MIC of: 8 ug/mL (value in parenthesis)?
A. 0.188

Q. So what does the record say about FICI of combination resulting in fluconazole MIC of: 8 ug/mL (value in parenthesis) for "COc1ccc(CCCCc2ccc(CC(=O)NO)cc2)cc1" ?
A. 0.183

Q. Could you tell me which FICI of combination resulting in fluconazole MIC of: 8 ug/mL (value in parenthesis) is on file for "COCCOCCOCCOCCOCCOc1ccc(CCCCc2ccc(CC(=O)NO)cc2)cc1" ?
A. 0.188

Q. What measured FICI of combination resulting in fluconazole MIC of: 8 ug/mL (value in parenthesis) goes with O=C(Cc1ccc(CCCC(O)c2ccccc2)cc1)NO (stereo not shown) ?
A. 0.188

Q. Name the recorded FICI of combination resulting in fluconazole MIC of: 8 ug/mL (value in parenthesis) for "Nc1cccc(CCCCc2ccc(CC(=O)NO)cc2)c1" .
A. 0.188

// batch mode: one FICI of combination resulting in fluconazole MIC of: 8 ug/mL (value in parenthesis) value per listed entry
1. CC(C(=O)NO)c1ccc(CCC(O)Cc2ccccc2)cc1 (stereo not shown)
2. O=C(Cc1ccc(CCCC(=O)c2ccccc2)cc1)NO
3. CC(C)(C(=O)NO)c1ccc(CCCCc2ccccc2)cc1
4. O=C(Cc1ccc(CCCCc2ccc(NC(=O)NCCN3CCOCC3)cc2)cc1)NO
5. CN(C)CCSCC(=O)Nc1ccc(CCCCc2ccc(CC(=O)NO)cc2)cc1

A.
1. 0.188
2. 0.125
3. 0.303
4. 0.313
5. 0.188

Items follow; give FICI of combination resulting in fluconazole MIC of: 8 ug/mL (value in parenthesis) for each.
1. O=C(Cc1ccc(CCCCc2cccc(NC(=O)CO)c2)cc1)NO
2. O=C(Cc1ccc(CCCCc2ccc(OCCCN3CCOCC3)cc2)cc1)NO
3. O=C(Cc1csc(CCCCc2ccccc2)n1)NO

A.
1. 0.313
2. 0.188
3. 0.188

I have 4 compounds here; please give me FICI of combination resulting in fluconazole MIC of: 8 ug/mL (value in parenthesis) for each one.
1. O=C(Cc1ccc(CCCCc2ccc(F)cc2F)cc1)NO
2. O=C(Cc1ccc(C(O)CCCc2ccccc2)cc1)NO (stereo not shown)
3. O=C(Cc1ccc(CCC(F)Cc2ccccc2)cc1)NO (stereo not shown)
4. O=C(Cc1ccc(CCCCc2ccc(C(=O)NCCCn3ccnc3)cc2)cc1)NO

A.
1. 0.303
2. 0.188
3. 0.313
4. 0.125

Field: FICI of combination resulting in fluconazole MIC of: 8 ug/mL (value in parenthesis). Fill in for each record below.
1. COCCOCCOCCOCCC(=O)Nc1ccc(CCCCc2ccc(CC(=O)NO)cc2)cc1
2. Cc1ccc(CCCCc2ccc(CC(=O)NO)cc2)cc1
3. CN1CCN(CCS(=O)(=O)Nc2cccc(CCCCc3ccc(CC(=O)NO)cc3)c2)CC1

A.
0.188
0.303
0.125

====

# Test system: C. glabrata
# method-description: Checkerboard FIC assay in combination with fluconazole (MIC alone and in combination, FICI)
# Assay type: cell-based, Candida glabrata
# run-conditions: concentration in combination as multiple of the compound's MIC alone; fluconazole MIC 8 ug/mL
# Method: The ability of the compounds to synergize with azoles against C. glabrata was evaluated by the checkerboard assay, a common laboratory method used to evaluate synergy, antagonism, and indifference using fractional inhibitory concentrations (FICs) and FIC indices (FICI). The test compounds were supplied as a powder and dissolved in dimethylsulfoxide (DMSO) on the day of assay. Stock solutions were prepared at 640 ug/mL. […] FIC values were determined using a broth microdilution method (CLSI; 1, 3). […]
observed-property: Multiple of compound MIC to synergize fluconazole MIC to 8 ug/mL

Q. For C. glabrata, provide Multiple of compound MIC to synergize fluconazole MIC to 8 ug/mL of CC(C(=O)NO)c1ccc(CCCCc2ccccc2)cc1 (stereo not drawn) please.
A. (⅛x)

Q. For the record "O=C(Cc1ccc(CCCCc2ccc(NC(=O)CO)cc2)cc1)NO" , what value of Multiple of compound MIC to synergize fluconazole MIC to 8 ug/mL is listed for C. glabrata?
A. (⅛x)

Q. Lookup: Multiple of compound MIC to synergize fluconazole MIC to 8 ug/mL / C. glabrata / CC(CCCc1ccc(CC(=O)NO)cc1)c1ccccc1 (stereo not drawn)
A. (¼x)

Q. Reported Multiple of compound MIC to synergize fluconazole MIC to 8 ug/mL for C. glabrata, given "O=C(Cc1ccc(CCC/C(=N\O)c2ccccc2)cc1)NO" ?
A. (⅛x)

Q. Request: Multiple of compound MIC to synergize fluconazole MIC to 8 ug/mL, test system C. glabrata, entry "O=C(Cc1ccc(CCCCc2cccc(NS(=O)(=O)CCN3CCOCC3)c2)cc1)NO"
A. (⅛x)

Lab note: next compound to report on.
Q. What measured Multiple of compound MIC to synergize fluconazole MIC to 8 ug/mL is associated with "Nc1cccc(CCCCc2ccc(CC(=O)NO)cc2)c1" on C. glabrata?
A. (⅛x)

====

# System: C. glabrata
# method-description: Checkerboard FIC assay in combination with fluconazole (MIC alone and in combination, FICI)
# Assay type: cell-based, Candida glabrata
# run-conditions: C. glabrata; FICI calculated using a fluconazole MIC of 16 μg/mL
What FICI of combination resulting in fluconazole MIC of: 8 ug/mL was measured for each of the following?

Solved entries:
Q. Dear colleague, I am looking for the recorded FICI of combination resulting in fluconazole MIC of: 8 ug/mL of the following compound: "O=C(Cc1ccc(CCCCc2ccc(CC(=O)NO)cc2)cc1)NO"
A. > 0.281

Q. Looking for the measured FICI of combination resulting in fluconazole MIC of: 8 ug/mL of O=C(Cc1ccc(CCC(F)Cc2ccccc2)cc1)NO (stereo not shown) , can you help?
A. 0.500

Q. If you can, please state the reported FICI of combination resulting in fluconazole MIC of: 8 ug/mL value of "O=C(Cc1ccc(CCC/C(=N\O)c2ccccc2)cc1)NO" .
A. 0.375

Q. Recorded FICI of combination resulting in fluconazole MIC of: 8 ug/mL of "O=C(Cc1ccc(CCCCc2ccccc2NC(=O)CO)cc1)NO" , please.
A. 0.500

List the reported FICI of combination resulting in fluconazole MIC of: 8 ug/mL of each compound below.
1. COCCOCCOCCNS(=O)(=O)c1ccc(CCCCc2ccc(CC(=O)NO)cc2)cc1
2. CN1CCC(C(=O)Nc2ccc(CCCCc3ccc(CC(=O)NO)cc3)cc2)CC1.Cl
3. Nc1ccc(CCCCc2ccc(CC(=O)NO)cc2)cc1

A.
1. 0.375
2. 0.625
3. 0.625
